experiment: Plasma profiles of Compound 2 metabolites in rats; settings: male, Sprague-Dawley, rat, plasma, po, 500 mg/kg
parameter.measured: AUC(0-t) (ng·h/mL)
Numbers only; they are read as ng·h/mL.

What value of AUC(0-t) has been recorded for this entry: CNc1nc(N)nc2c1ncn2[C@@H]1O[C@H](CO[P@@](=O)(N[C@@H](C)C(=O)OC(C)C)Oc2ccccc2)[C@@H](O)[C@@]1(C)F
78.2

Look up AUC(0-t) for this molecule: C[C@@]1(F)[C@H](O)[C@@H](CO)O[C@H]1n1cnc2c(=O)[nH]c(N)nc21 [Metabolite 1-7]
9640

###

assay: Single ascending dose study of Compound 2 in GT1-HCV infected patients (Part B): safety, tolerability, pharmacokinetic; format: in vivo, human; conditions: human, plasma, oral, 100 mg, GT1-HCV infected patients; Compound 2 100 mg; mean±SD; read-out: C24h
parameter.measured: concentration at 24 h (ng/mL)
Give just the numeric value; ng/mL need not be written.

Give the measured concentration at 24 h of C[C@@]1(F)[C@H](O)[C@@H](CO)O[C@H]1n1cnc2c(=O)[nH]c(N)nc21 [Metabolite 1-7] .
3.6

###

parameter.measured: Kd

So what Kd did C[C@@]1(F)[C@H](O)[C@@H](COP(=O)(O)OP(=O)(O)OP(=O)(O)O)O[C@H]1n1cnc2c(=O)[nH]c(N)nc21 [Metabolite 1-6] get with human mitochondrial RNA-dependent RNA polymerase (POLRMT) (Homo sapiens, UniProt O00411)?
204 µM

###

experiment: Single ascending dose study of Compound 2 in healthy volunteers (Part A): safety, tolerability, pharmacokinetic; type: in vivo, human; settings: both sexes, human, plasma, oral, 400 mg
parameter.measured: Cmax (ng/mL)
Kindly provide the numeric value in ng/mL only, without the unit symbol.

Give the measured Cmax of C[C@@]1(F)[C@H](O)[C@@H](CO)O[C@H]1n1cnc2c(=O)[nH]c(N)nc21 [Metabolite 1-7] .
153

###

assay: Single ascending dose study of Compound 2 in GT1-HCV infected patients (Part B): safety, tolerability, pharmacokinetic; assay type: in vivo, human; settings: human, in vivo, 300 mg, GT1-HCV infected patients; Compound 2 300 mg (second 300 mg line); mean±SD
Answer each item with its documented Cmax.
Express the result in ng/mL but write the number alone.

What Cmax value was documented for this compound, C[C@@]1(F)[C@H](O)[C@@H](CO)O[C@H]1n1cnc2c(=O)[nH]c(N)nc21 [Metabolite 1-7] ?
123

So what's the measured Cmax for this one? CNc1nc(N)nc2c1ncn2[C@@H]1O[C@H](CO[P@@](=O)(N[C@@H](C)C(=O)OC(C)C)Oc2ccccc2)[C@@H](O)[C@@]1(C)F [Compound 1]
2280

###

experiment: Plasma levels of metabolites following single oral doses of Compound 2, monkeys; assay type: in vivo, monkey; conditions: monkey, plasma, po, 100 mg/kg
parameter.measured: Cmax

Recorded Cmax for CNc1nc(N)nc2c1ncn2[C@@H]1O[C@H](CO[P@@](=O)(N[C@@H](C)C(=O)OC(C)C)Oc2ccccc2)[C@@H](O)[C@@]1(C)F , please?
783 ng/mL

###

experiment: Single ascending dose study of Compound 2 in GT1-HCV infected patients (Part B): safety, tolerability, pharmacokinetic; type: in vivo, human; conditions: human, in vivo, 100 mg, GT1-HCV infected patients; Compound 2 100 mg; mean±SD; based on 24-hr profile
parameter.measured: AUC (ng·h/mL)
Value expressed in ng·h/mL; do not type the unit.

What value of measured AUC is listed for C[C@@]1(F)[C@H](O)[C@@H](CO)O[C@H]1n1cnc2c(=O)[nH]c(N)nc21 [Metabolite 1-7] ?
538

###

assay: Plasma profiles of Compound 2 metabolites in monkeys; format: in vivo, cynomolgus monkeys; conditions: cynomolgus monkey, plasma, po, 100 mg/kg
parameter.measured: Cmax (ng/mL)
API: value field is a number in ng/mL; no unit string.

Which Cmax is reported for this molecule? CNc1nc(N)nc2c1ncn2[C@@H]1O[C@H](CO[P@@](=O)(N[C@@H](C)C(=O)OC(C)C)Oc2ccccc2)[C@@H](O)[C@@]1(C)F [Compound 1]
783

Record request: Cmax value, item C[C@@]1(F)[C@H](O)[C@@H](CO)O[C@H]1n1cnc2c(=O)[nH]c(N)nc21 [Metabolite 1-7]
131

###

Assay: Single ascending dose study of Compound 2 in healthy volunteers (Part A): safety, tolerability, pharmacokinetic
Assay type: in vivo, human
Conditions: both sexes, human, in vivo, 200 mg
Description: Compound 2 was tested in a single ascending dose (SAD) study to measure its safety, tolerability, and pharmacokinetic in healthy subjects (Part A). Part A was a randomized, double-blind, placebo-controlled SAD study. […] Dosing in each cohort was staggered such that 2 subjects (1 active:1 placebo) were evaluated for 48 hours after dosing before the remainder of the cohort was dosed. […] Pharmacokinetic of Compound 1 and nucleoside metabolite 1-7 were measured following the single dose of Compound 2. […]
parameter.measured: half-life (min)
Write down the numeric answer in min and omit the unit.

Value lookup for half-life; key = CNc1nc(N)nc2c1ncn2[C@@H]1O[C@H](CO[P@@](=O)(N[C@@H](C)C(=O)OC(C)C)Oc2ccccc2)[C@@H](O)[C@@]1(C)F [Compound 1]
42.6

###

Would you kindly list Cmax for each of these molecules?
test: Plasma profiles of Compound 2 metabolites in monkeys; format: in vivo, cynomolgus monkeys; settings: cynomolgus monkey, plasma, po, 30 mg/kg
The reply should be a number in ng/mL, with the unit left off.

Consider the molecule shown here: CNc1nc(N)nc2c1ncn2[C@@H]1O[C@H](CO[P@@](=O)(N[C@@H](C)C(=O)OC(C)C)Oc2ccccc2)[C@@H](O)[C@@]1(C)F [Compound 1] What is its recorded Cmax?
63.5

Recorded Cmax for C[C@@]1(F)[C@H](O)[C@@H](CO)O[C@H]1n1cnc2c(=O)[nH]c(N)nc21 [Metabolite 1-7] , please?
42.5

###

test: Plasma profiles of Compound 2 metabolites in monkeys; format: in vivo, cynomolgus monkeys; conditions: cynomolgus monkey, plasma, po, 300 mg/kg
parameter.measured: Tmax

Tmax for C[C@@]1(F)[C@H](O)[C@@H](CO)O[C@H]1n1cnc2c(=O)[nH]c(N)nc21 [Metabolite 1-7] ?
4 to 24 h

###

Consider the following compounds; for each one, report its Cmax.
experiment: Plasma profiles of Compound 2 metabolites in rats; conditions: male, Sprague-Dawley, rat, plasma, po, 500 mg/kg
Output spec: scalar in ng/mL, unitless text.

# input compound: CNc1nc(N)nc2c1ncn2[C@@H]1O[C@H](CO[P@@](=O)(N[C@@H](C)C(=O)OC(C)C)Oc2ccccc2)[C@@H](O)[C@@]1(C)F ; wanted: its Cmax
60.8

// returns reported Cmax for input C[C@@]1(F)[C@H](O)[C@@H](CO)O[C@H]1n1cnc2c(=O)[nH]c(N)nc21 [Metabolite 1-7]
541

###

Assay: Single ascending dose study of Compound 2 in healthy volunteers (Part A): safety, tolerability, pharmacokinetic
Type: in vivo, human
Conditions: both sexes, human, in vivo, 400 mg
Description: Compound 2 was tested in a single ascending dose (SAD) study to measure its safety, tolerability, and pharmacokinetic in healthy subjects (Part A). Part A was a randomized, double-blind, placebo-controlled SAD study. […] Dosing in each cohort was staggered such that 2 subjects (1 active:1 placebo) were evaluated for 48 hours after dosing before the remainder of the cohort was dosed. […] Pharmacokinetic of Compound 1 and nucleoside metabolite 1-7 were measured following the single dose of Compound 2. […]
parameter.measured: Tmax (min)
Please state the figure in min; there is no need to write the unit.

Please give the measured Tmax for this compound: CNc1nc(N)nc2c1ncn2[C@@H]1O[C@H](CO[P@@](=O)(N[C@@H](C)C(=O)OC(C)C)Oc2ccccc2)[C@@H](O)[C@@]1(C)F
30

###

test: Single ascending dose study of Compound 2 in healthy volunteers (Part A): safety, tolerability, pharmacokinetic; type: in vivo, human; details: both sexes, human, plasma, oral, 100 mg
parameter.measured: half-life (min)
Number in min, nothing else.

// returns reported half-life for input C[C@@]1(F)[C@H](O)[C@@H](CO)O[C@H]1n1cnc2c(=O)[nH]c(N)nc21 [Metabolite 1-7]
1060

###

Experiment: Single ascending dose study of Compound 2 in GT1-HCV infected patients (Part B): safety, tolerability, pharmacokinetic
Format: in vivo, human
Settings: human, in vivo, 100 mg; read-out: Tmax
Description: Subjects in Part B received a single dose of Compound 2 in the fasting state. Patients were confined to the clinic from Day −1 to Day 6. […] Pharmacokinetic of Compound 1 and nucleoside metabolite 1-7 were measured following the single dose of Compound 2. […]
parameter.measured: Tmax (min)
Respond with the bare value in min.

What value of Tmax has been recorded for this entry: CNc1nc(N)nc2c1ncn2[C@@H]1O[C@H](CO[P@@](=O)(N[C@@H](C)C(=O)OC(C)C)Oc2ccccc2)[C@@H](O)[C@@]1(C)F
30
